System: MS2 coat protein
method: apparent KD of MS2 coat protein; designed switch direction (-1 OFF switch, 1 ON switch): -1; higher = weaker reporter binding
study_conditions: input ligand: FMN 200 uM
property_name: apparent KD of MS2 coat protein (nM)
Give bare numbers, in nM.

// solved cases for apparent KD of MS2 coat protein follow
AAAGUAGGAGGAUAUGGAUAUAGUAACAUGAGGAUCACCCAUGUUCUUGGUGUUCGUUACCCAGAAGGCCUGACAC [Eternabot (L1) Solution 64] (Eterna round: R97, puzzle: Exclusion 5) : 184
GGCCUUCCACAAGCUUUUUACAUGAGGAUCACCCAUGUGGUUUUUAGUCUUAUCCCGGGCCCGAUGUCGGGCCCGGG [-33.4, -54.7, A 16%] (Eterna round: R97, puzzle: Sensor, turn-off variant 1) : 27.4
UUCCCACAUGAGGAUCACCCAUGUGAGGAUAUGGGCGGCGCCGCAAAAGCGGCGCCGCCCAGAAGGCGCAUGAU [Malcxlusion 8 - Jieux - Exclusion 1] (Eterna round: R97, puzzle: Exclusion 1) : 21.6

For each of the sequences below, note its apparent KD of MS2 coat protein.
1. ACAAGCUUAAUCUGUAUGAACAUGAGGAUCACCCAUGUAAAAGGGAAUACUUUUGGGUUUUUUAUAGCUCGUCUUAU [JR_STOV1_Sub019] (Eterna round: R97, puzzle: Sensor, turn-off variant 1)
2. GGCCGGGCAGGAUAUGCGUGGGUCCUCAUGAGGACCCACGUACAUGAGGAUCACCCAUGUAGAAGGGCCCGGCC (Eterna round: R97, puzzle: Exclusion 2)
3. UUCUAACGAGGAUAUCGAUGGUGGAACAUGAGGAUCACCCAUGUAUGAGAUAUUGUAGUUCGAGAAGGCGUUCAGU [JR_E5_Sub057] (Eterna round: R96, puzzle: Exclusion 5)
4. CUAAUUCGAGGAUAUGCAAUGGAGUCUUUAAUAUAGUUCUCACAUGAGGAUCACCCAUGUAGAAGGCGAGCGGG [Eternabot (L1) Solution 50] (Eterna round: R97, puzzle: Exclusion 2)
5. AGGUGCUUCUGGAGACAUGAGGAUCACCCAUGUCGAGUCAGCGAGGAUAUCGGUAAGACAUGUGAUGAGAAGGCGCAGACCGAU [Ex NG3 #52] (Eterna round: R96, puzzle: Exclusion NG 3)
6. GUCUUAAGUUAAACCGAUUACAUGAGGAUCACCCAUGUGAACAUGACAGUCCGCAUGAGGAGUUUCUUGCUCGUCAU [Eternabot (L1) Solution 28] (Eterna round: R97, puzzle: Sensor, turn-off variant 1)
7. AAAUAGUGAGGAUAUUAGUUGUACGUCAAUAGACGUAUAAGUGAGAAGGCACAUGAGGAUCACCCAUGUUCCUG [Omei Ex4 Mod of Mat's R95 mod of Omei v8] (Eterna round: R97, puzzle: Exclusion 4)
8. CGUAGCAAAGUGAGGAUAUCUAGAGCCUCGGCUCUAGAGAAGGCACAUGAGGAUCACCCAUGUGGUCAGCUACG [BmEx4/8-A2] (Eterna round: R97, puzzle: Brourd's mod of Exclusion 4)

stdout:
[52, 17.6, 35.9, 115, 48.6, 49.6, 34.4, 1050]

For every item below, please supply its apparent KD of MS2 coat protein.
1. AGCAGACGAGGAUAUGAUAAUUAAUACAUGAGGAUCACCCAUGUAAUACUGAUCGAUAGAUCAGAAGGCGUCUGCU [E5/3-A2] (Eterna round: R97, puzzle: Exclusion 5)
2. AGUUGGCGAGGAUAUACAUGAGGAUCACCCAUGUGAAAUCCAAGUGAGGAAAUGAAAAGUAGAAGGCGCUGACA [Mod of Mat 23 - Jieux - Exclusion 3] (Eterna round: R97, puzzle: Exclusion 3)
3. GCUGGACGAGGAUAUACAAUCGUGCUUCGGCACGUAAGGUCACAUGAGGAUCACCCAUGUAGAAGGUGUCCAGC [E2/2-B2] (Eterna round: R97, puzzle: Exclusion 2)
4. ACGAUGAUCGAAAAGUGUAAAUCGACAUGAGGAUCACCCAUGUAGGAUAUGGCUACGAAAAGUAGUCAGAAGGGCAUGUCAUCA [3 Av 11 mod - 1] (Eterna round: R96, puzzle: Exclusion NG 3)
5. ACAUGAGGAUCACCCAUGUGACCACGAUGGCUGAUGUAGACCUAGGAUAUGAGUGAAUAUCUAUCUCAGAAGGAGGUUGACUGG [Deportation 50 - Jieux - Exclusion NG 3] (Eterna round: R96, puzzle: Exclusion NG 3)
6. AAGACACAUGAGGAUCACCCAUGUGAGGAUAUGCGAUGCUAAGCGUAAGCUUAGUAUCGCAGAAGGCACAAAGG [Salishxclusion 4 - Jieux - Exclusion 1] (Eterna round: R97, puzzle: Exclusion 1)
7. UUGUACCGGUGAGGAUAUUUUUAAUAGAGCUUUAUGAUAUACAUGAGGAUCACCCAUGUUACUUUAAAGAAGGCAUCGGAUUAU [JL JR Sub091 mod 3] (Eterna round: R96, puzzle: Exclusion NG 2)

stdout:
14.7
50
54.8
36.9
46.7
76.9
14.9

Where these numbers come from: the supplement of paper PMC9170038
